Provide the reported IC50 of each item.
- Assayed target: UniProt Q96KS0
- Sequence (Q96KS0 whole entry): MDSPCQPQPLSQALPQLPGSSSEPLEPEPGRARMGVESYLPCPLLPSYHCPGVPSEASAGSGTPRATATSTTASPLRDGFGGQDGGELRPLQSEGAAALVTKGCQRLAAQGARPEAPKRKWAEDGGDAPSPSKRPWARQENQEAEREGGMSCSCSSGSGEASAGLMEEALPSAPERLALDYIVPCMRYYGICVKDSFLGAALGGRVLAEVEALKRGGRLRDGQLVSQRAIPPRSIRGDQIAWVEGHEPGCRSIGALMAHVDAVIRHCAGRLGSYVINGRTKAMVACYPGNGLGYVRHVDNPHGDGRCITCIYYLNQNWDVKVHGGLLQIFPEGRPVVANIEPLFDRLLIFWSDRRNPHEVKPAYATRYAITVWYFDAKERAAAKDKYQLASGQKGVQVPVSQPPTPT
- Test summary: HIF-PH assay (14CO2 capture), PHD1 enzyme inhibition
- Format: biochemical
- Condition set: Table 1; individual measurement; read-out: IC50 (μM) PHD1
Numbers only, in µM.

Count: 4. Required value per item: IC50.
1. O=C(O)CCNC(=O)c1ncc2cc(NC(=O)Nc3ccc(F)cc3)ccc2c1O [Compound 141]
2. CC(C)(C)OC(=O)N1CCC(CC(=O)O)(NC(=O)c2nc(C#N)c3cc(Oc4ccccc4)ccc3c2O)CC1 [Compound 96]
3. C[C@H](CNC(=O)c1nc(C#N)c2cc(Oc3ccccc3)ccc2c1O)C(=O)O [Compound 92]
4. N#Cc1nc(C(=O)NCC2(C(=O)O)CC2)c(O)c2ccc(Oc3ccccc3)cc12 [Compound 12]

1: 3; 2: 11.3; 3: 0.28; 4: 0.17

Data provenance: patent US9409892B2
